# measurement-notes: soluble on expression in E. coli; label from the status in PepcDB or PDB records
quantity-kind: soluble on expression in E. coli

These solved cases illustrate the format of a correct answer.
MIITIARQCGCGGHEVARILANKLGMELFDKKKLLEEANQLGQAEEHSNFFNEVPINSLLYGIAMGFGNTKPMDKSLKLVKAITENKDAIIIGRCANIIYKDSKDVTSVYLFADKEFRIKYLMERDGISEKEAEKYIKEVDEKRTSFHKYCTDTVWGDAKEYQLCLDTGKIGFEKTAELIMNYINAKKES	not soluble
MPFSISGRKGSEMMAKLDELKQKLTAKQIQAAYLLVENELMESNNEEKRTQDEMANELGINRTTLWEWRTKNQDFIAFKSEVADSFLAEKREQVYSKLMQLILGPQPSVKAMQLYMQRFGLLTDKKVIEGDLGNATRTNAEIEEQLQKLKKLTGE	soluble
MPAPLYGADDPLRCSGNSVSEVLDKFRKKYDLIMSLPQETKEEKEFRHCIWLAEKEEREQIYQTSIRPFRKATYTHFPEIDPRLRNYRSRYGAISND	not soluble
MFSGKTSRLIELMERHILAGRKVTLFKPEIDSRYSENEVVTHKGIKLPAVIAPTDERFGEFLAARTRDSNVLGFDEAQFWKPSSRLPQHLEDLANSGRTVYVAALNRDHFGNPFRMTVDILAISDEIYTLSAVCSRCGSDAIFTQRIINGSPAFGEIIRIGGKDLYEPRCRNCFVWPSAQKRITDL	soluble

Field: next sequence
**Query** Param item = MSQDFVTLVSKDDKEYEISRSAAMISPTLKAMIEGPFRESKGRIELKQFDSHILEKAVEYLNYNLKYSGVSEDDDEIPEFEIPTEMSLELLLAADYLSI ; retrieve measured soluble on expression in E. coli.
**Result** soluble

###

# measurement-notes: soluble on expression in E. coli; label from the status in PepcDB or PDB records
quantity-kind: soluble on expression in E. coli

MLWKEYEEASSLTARVVKHLDKFDMIVQADKYEKTHEIDLQQFFTSTVGVLKMEPFATWDRELRENRMKRINKAE	not soluble
MQGPPRFGRLGGGAARRAARAQAPLYQEQPNYRDLVELAAEQARQAAAAPPPQLVPMLRDPIPIRFHRRDELLDRFGMDLGVAHRQELPNERIELAEARDQLAEQQRRALEAQRDQLARHNALADDLRARRERIVQEARAHARRADARDARLEAAAAADRRERFLQEAQEADARRAADGDARAELGEQLRALEAAVAGLPEAQAPQLRDRRARFVARLRARRAADAQAGALANEQRALEARLEGDFADLRAAEGRLLHPPPPQVCEFFFFAHFLLKMRKNLENLSQKLRFEVENWKIPLKFEICEILWKNHENCSKKR	not soluble

###

# measurement-notes: soluble on expression in E. coli; label from the status in PepcDB or PDB records
quantity-kind: soluble on expression in E. coli

MCFHNSMSAKAIKVAARYGRQSDVVEIYQSILDEQYHVNAFTFPRYPIITSSDEVQVFNWGLIPFWVRSEEDATEIRKMTLNARADTIFEKPSFREPIMKKRCIVPSTGYFEWRHEGANKIPYYIYVKDEPIFSMAGIYDRWLDKDTGEEHETFSIITTDTNSLTDYIDNTKHRMPAILTQEEEEKWLNPSLSKAEIASLLKPFDTEKMDAYVIRNDFLKKSPNDPTIVQRALEHHHHHH	soluble
SDPRRNFQPGGYDSRNTFTSGSFGPPDFGESDEAELVSVSWNQDYSCFAAGTSHGFRIYNCEPFKETFRRELKDGGFKIVEMLFRSNILALVGGGPNSQYPSNKVLIWDDHQGRCISEFTFRSEIRAVKLRRDRIVVVLEHKIYVYNFMDLRLLHQIENMANPRGLCCLSHHMNTSVLACPGIRRGEVRVEHFGLNMVQIINAHDSNIACMTLTLDGLLLATASTKGTLIRIFNTMDGTRLQEVRRGVDRADIYSIALSPNVQWLAVSSDKGTVHIFSLRVRVIGEDAYSTEHETSSNSLQPLVSPASGANPGSSLSFLRGVLPKYFSSEWSFSQFHVPEVTQYFAAFGAQNTIAIIGLDGSFYRCNFDPVNGGEMTQLEHFHFLKQDSPR	soluble
MSLNSNEKMGIFQGKKMKTKIIVIVGPTAVGKTALAIEVAKRFNGEVVSGDSQQVYRGLDIGTAKASPEEQAAVPHHLIDVREITESYSAFDFVSEAKMTIEDIHSRGKLAIIAGGTGLYIQSLLEGYHLGGETPHEEILAYRASLEPYSDEELAHLVEQAGLEIPQFNRRRAMRALEIAHFGQDLENQEILYEPLIICLDDERSQLYERINHRVDLMFEAGLLDEAKWLFDHSPNVQAAKGIGYKELFPYFRGEQTFEEARESLKQATRRFAKRQLTWFRNRMQVTFYQIGESGVQDRILSQIEEFLDDEGHHHHHH	soluble
